System: H1299 cells
Experiment: Cytotoxicity / anti-proliferative activity in H1299 lung cancer cells
Details: read-out: Cytotoxicity IC50 H1299; mean SD of three determinations
recorded-metric: IC50

Solved entries (count: 3):
compound: COc1ccc(/C=C/C(=O)NO)c(-c2ccc(-c3ccccc3)cc2)c1 [Compound 22d]
IC50: 7.2 nM
//
compound: COc1ccc(/C=C/C(=O)NO)c(-c2cccc3c2oc2ccccc23)c1 [Compound 22g]
IC50: 6.6 nM
//
compound: COc1ccc(/C=C/C(=O)NO)c(-c2ccc(C(=O)c3ccccc3)cc2)c1 [Compound 22f]
IC50: 8.4 nM

Batch lookup, IC50 per entry.
1. COc1ccc(Cn2ccc3ccc(C(=O)NO)cc32)cc1 [PCI34051, reference compound]
2. COc1ccc(/C=C/C(=O)NO)c(-c2ccc(Br)cc2)c1 [Compound 22b]

1. > 10 nM
2. > 10 nM

###

Target: HDAC8 (Homo sapiens (Human))
Test: Inhibition of HDAC8
Format: biochemical
Details: inhibition of HDAC8, relative potency (Tables 1-3)
recorded-metric: IC50 PCI34051/IC50 compound
Numbers only.

compound: COc1ccc(Nc2cc(OC)ccc2/C=C/C(=O)NO)cc1
IC50 PCI34051/IC50 compound: 0.30
//
compound: COc1ccc(/C=C/C(=O)NO)c(Nc2ccccc2)c1
IC50 PCI34051/IC50 compound: 0.40
//
compound: COc1cc(Nc2c(/C=C/C(=O)NO)ccc(OC)c2OC)cc(OC)c1OC [Compound 15d]
IC50 PCI34051/IC50 compound: 0.44
//
compound: COc1ccc(/C=C/C(=O)NO)c(Nc2ccc(OC)c(OC)c2)c1
IC50 PCI34051/IC50 compound: 0.44

Attention now turns to another entry.
State its IC50 PCI34051/IC50 compound on HDAC8 (Homo sapiens (Human)): COc1cc(Nc2cc(F)ccc2/C=C/C(=O)NO)cc(OC)c1OC [Compound 15a] 0.38

###

Target: HDAC3 (Homo sapiens (Human), UniProt O15379)
Sequence (O15379 whole entry, looked up, species assumed): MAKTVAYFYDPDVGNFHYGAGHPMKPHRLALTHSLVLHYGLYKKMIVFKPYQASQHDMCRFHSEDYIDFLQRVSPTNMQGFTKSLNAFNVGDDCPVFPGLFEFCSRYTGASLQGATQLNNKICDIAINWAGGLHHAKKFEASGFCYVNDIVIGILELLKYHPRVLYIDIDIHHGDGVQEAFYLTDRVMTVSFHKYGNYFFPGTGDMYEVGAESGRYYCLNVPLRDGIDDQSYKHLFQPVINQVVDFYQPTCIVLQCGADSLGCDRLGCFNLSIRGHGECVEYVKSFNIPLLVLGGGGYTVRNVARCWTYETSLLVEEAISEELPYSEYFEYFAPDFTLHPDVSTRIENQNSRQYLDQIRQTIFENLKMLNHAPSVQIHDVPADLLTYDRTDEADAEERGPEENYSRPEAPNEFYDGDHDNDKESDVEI
Sequence (Q9Y618 whole entry partner, looked up, species assumed): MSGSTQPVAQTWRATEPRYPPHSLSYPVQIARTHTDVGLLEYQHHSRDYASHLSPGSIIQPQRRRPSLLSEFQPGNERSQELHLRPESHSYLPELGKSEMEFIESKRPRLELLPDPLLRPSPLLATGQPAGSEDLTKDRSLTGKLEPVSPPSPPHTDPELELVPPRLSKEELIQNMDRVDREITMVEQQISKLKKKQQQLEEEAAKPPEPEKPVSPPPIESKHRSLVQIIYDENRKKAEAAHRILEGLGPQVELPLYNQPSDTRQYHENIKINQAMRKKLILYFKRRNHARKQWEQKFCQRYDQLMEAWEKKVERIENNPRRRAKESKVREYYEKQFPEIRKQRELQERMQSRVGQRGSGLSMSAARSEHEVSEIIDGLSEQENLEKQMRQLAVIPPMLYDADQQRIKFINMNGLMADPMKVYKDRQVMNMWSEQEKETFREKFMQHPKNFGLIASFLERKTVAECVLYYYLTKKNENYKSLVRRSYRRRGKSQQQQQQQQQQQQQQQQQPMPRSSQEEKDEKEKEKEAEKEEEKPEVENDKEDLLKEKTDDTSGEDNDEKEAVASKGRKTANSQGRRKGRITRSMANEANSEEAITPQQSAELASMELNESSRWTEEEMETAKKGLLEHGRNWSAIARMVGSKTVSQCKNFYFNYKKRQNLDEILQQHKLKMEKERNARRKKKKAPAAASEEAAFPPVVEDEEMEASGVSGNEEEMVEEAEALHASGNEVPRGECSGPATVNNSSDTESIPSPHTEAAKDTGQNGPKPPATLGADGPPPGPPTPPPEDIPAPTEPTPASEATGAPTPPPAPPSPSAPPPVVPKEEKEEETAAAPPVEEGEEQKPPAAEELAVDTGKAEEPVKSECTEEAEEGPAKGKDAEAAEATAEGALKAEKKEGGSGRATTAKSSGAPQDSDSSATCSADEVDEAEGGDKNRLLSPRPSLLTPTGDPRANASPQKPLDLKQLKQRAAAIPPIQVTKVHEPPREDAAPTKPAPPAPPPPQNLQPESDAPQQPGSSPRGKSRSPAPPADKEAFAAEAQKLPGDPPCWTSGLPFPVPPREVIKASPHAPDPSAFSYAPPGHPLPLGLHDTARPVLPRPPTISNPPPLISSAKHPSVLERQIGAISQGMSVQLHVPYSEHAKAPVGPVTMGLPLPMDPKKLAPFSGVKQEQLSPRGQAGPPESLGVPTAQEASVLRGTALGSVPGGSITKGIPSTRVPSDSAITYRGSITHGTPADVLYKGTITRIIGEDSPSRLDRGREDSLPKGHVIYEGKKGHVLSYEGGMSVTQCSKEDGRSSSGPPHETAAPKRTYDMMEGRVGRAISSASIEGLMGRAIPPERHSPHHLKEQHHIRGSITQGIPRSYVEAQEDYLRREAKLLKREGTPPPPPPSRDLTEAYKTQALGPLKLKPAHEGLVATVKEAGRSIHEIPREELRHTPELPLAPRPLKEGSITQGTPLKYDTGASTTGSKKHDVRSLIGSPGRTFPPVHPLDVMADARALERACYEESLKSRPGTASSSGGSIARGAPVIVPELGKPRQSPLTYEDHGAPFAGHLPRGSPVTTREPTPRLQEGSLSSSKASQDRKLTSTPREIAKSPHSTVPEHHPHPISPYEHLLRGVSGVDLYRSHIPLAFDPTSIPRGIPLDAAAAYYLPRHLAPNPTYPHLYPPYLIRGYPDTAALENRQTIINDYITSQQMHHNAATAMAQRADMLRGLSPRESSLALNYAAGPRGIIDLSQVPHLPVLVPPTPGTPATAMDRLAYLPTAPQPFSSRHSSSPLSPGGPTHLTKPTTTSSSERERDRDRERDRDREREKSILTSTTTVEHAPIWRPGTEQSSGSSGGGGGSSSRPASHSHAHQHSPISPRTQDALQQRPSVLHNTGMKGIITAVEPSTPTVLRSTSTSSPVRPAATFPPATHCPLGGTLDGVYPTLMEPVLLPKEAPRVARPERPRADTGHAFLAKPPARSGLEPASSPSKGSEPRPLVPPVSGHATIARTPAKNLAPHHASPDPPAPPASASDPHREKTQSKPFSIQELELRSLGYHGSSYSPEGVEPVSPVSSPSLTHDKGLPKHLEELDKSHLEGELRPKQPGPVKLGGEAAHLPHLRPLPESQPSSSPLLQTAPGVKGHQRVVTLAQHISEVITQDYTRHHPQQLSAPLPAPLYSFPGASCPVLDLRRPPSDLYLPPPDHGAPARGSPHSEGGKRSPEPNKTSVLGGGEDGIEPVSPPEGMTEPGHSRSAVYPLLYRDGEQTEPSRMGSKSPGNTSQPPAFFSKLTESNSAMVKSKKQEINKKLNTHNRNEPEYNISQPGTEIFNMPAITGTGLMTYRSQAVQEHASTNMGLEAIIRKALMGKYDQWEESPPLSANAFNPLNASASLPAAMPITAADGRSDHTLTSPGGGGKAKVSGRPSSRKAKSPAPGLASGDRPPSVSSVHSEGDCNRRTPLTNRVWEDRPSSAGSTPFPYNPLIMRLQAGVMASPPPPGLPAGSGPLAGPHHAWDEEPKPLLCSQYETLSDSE
recorded-metric: IC50 (nM)
Give bare numbers, in nM.

molecule: COc1ccc(/C=C/C(=O)NO)c(-c2ccc(-c3ccccc3)cc2)c1 [Compound 22d]
numeric-value: 3

What does the record list as IC50 for COc1ccc(/C=C/C(=O)NO)c(-c2ccc(Br)cc2)c1 [Compound 22b] ? 4.8

###

pIC50 data for HDAC4 (Homo sapiens (Human), UniProt P56524) follow.
pIC50: −log10 of the molar value.

Each of the following entries comes with a recorded value; kindly state pIC50 for each.
1. COc1ccc(/C=C/C(=O)NO)c(-c2ccc(Br)cc2)c1 [Compound 22b]
2. COc1ccc(/C=C/C(=O)NO)c(-c2ccc(-c3ccccc3)cc2)c1 [Compound 22d]

< 7.70
< 7.70

###

System: Cl1-1 cells
Assay: Cytotoxicity / anti-proliferative activity in CL1-1 lung cancer cells
Conditions: read-out: Cytotoxicity IC50 Cl1-1; mean SD of three determinations
pIC50: −log10 of the molar value.
I'd appreciate it if you could supply pIC50 values for the items below.

compound: COc1ccc(/C=C/C(=O)NO)c(-c2ccc(Br)cc2)c1 [Compound 22b]
result: < 8.00
//
compound: COc1ccc(/C=C/C(=O)NO)c(-c2cccc3c2oc2ccccc23)c1 [Compound 22g]
result: 8.07

Give pIC50 for all compounds that follow.
1. COc1ccc(/C=C/C(=O)NO)c(-c2ccc(C(=O)c3ccccc3)cc2)c1 [Compound 22f]
2. COc1ccc(Cn2ccc3ccc(C(=O)NO)cc32)cc1 [PCI34051, reference compound]
3. COc1ccc(/C=C/C(=O)NO)c(-c2ccc(-c3ccccc3)cc2)c1 [Compound 22d]

< 8.00
< 8.00
< 8.00

###

Molecular target: UniProtKB Q9BY41
Test: Inhibition of HDAC8
Format: biochemical
Conditions: inhibition of HDAC8, relative potency (Tables 1-3)
Provide the reported IC50 PCI34051/IC50 compound of each item.
Numbers only.

Your task in this section: give IC50 PCI34051/IC50 compound for each listed record.
1. COc1ccc(/C=C/C(=O)NO)c(-c2ccc(F)cc2)c1
2. COc1cccc(Nc2cc(OC)ccc2/C=C/C(=O)NO)c1
3. COc1cc(Nc2cc(C(F)(F)F)ccc2/C=C/C(=O)NO)cc(OC)c1OC [Compound 15b]
4. COc1ccc(/C=C/C(=O)NO)c(Nc2ccccc2OC)c1

1. 1.90
2. 0.44
3. 0.55
4. 0.17

Would you mind giving IC50 PCI34051/IC50 compound for every molecule in the list below?
1. COc1ccc(/C=C/C(=O)NO)c(-c2cccc3[nH]ccc23)c1
2. COc1ccc(/C=C/C(=O)NO)c(Nc2cc(OC)c(OC)c(OC)c2)c1
3. COc1ccc(/C=C/C(=O)NO)c(-c2ccc3c(c2)OCO3)c1

0.64
0.24
1.86

Please give IC50 PCI34051/IC50 compound, item by item, for the list that follows.
1. COc1ccc(/C=C/C(=O)NO)c(-c2cc(OC)c(OC)c(OC)c2)c1
2. COc1ccc(/C=C/C(=O)NO)c(Oc2cc(OC)c(OC)c(OC)c2)c1

[0.29, 0.49]

###

Tested on: MV4-11 cells
Test: Proliferation of MV4-11 cells, luminescent cell viability assay
Assay type: cell-based, human
Settings: Homo sapiens, MV4-11; 48-hr, luminescent cell viability assay; read-out: MV4-11 Proliferation IC50
recorded-metric: pIC50
Numbers only, as −log10 of the molar value.

Entry under review: COc1ccc(/C=C/C(=O)NO)c(-c2cnc3ccccc3c2)c1 [Compound 5h] . Reported pIC50? 4.78

###

Biological target: UniProt:Q9BY41
Test: Inhibition of HDAC8
Type: biochemical
Settings: inhibition of HDAC8; footnote: (Tables 11-13)
Assign Criterion met to entries whose A (relative potency to PCI34051) meets or exceeds 0.4; assign Criterion not met to the rest.

Reference set, count: 3
compound: COc1cc(Nc2cc(C(F)(F)F)ccc2/C=C/C(=O)NO)cc(OC)c1OC [Compound 15b]
assigned-class: Criterion met
//
compound: COc1cccc(Nc2cc(OC)ccc2/C=C/C(=O)NO)c1
assigned-class: Criterion met
//
compound: COc1ccc(/C=C/C(=O)NO)c(Oc2cc(OC)c(OC)c(OC)c2)c1
assigned-class: Criterion met

Does the reported A (relative potency to PCI34051) for COc1ccc(/C=C/C(=O)NO)c(-c2cccc3[nH]ccc23)c1 fall at or above the 0.4 mark? Criterion met

Could you verify whether the entry COc1ccc(/C=C/C(=O)NO)c(Nc2cc(OC)c(OC)c(OC)c2)c1 shows A (relative potency to PCI34051) of no less than 0.4? Criterion not met

###

Assignment: determine reported IC50 for the given compounds.
Test system: CL1-5 cells
Experiment: Cytotoxicity / anti-proliferative activity in CL1-5 lung cancer cells
Settings: read-out: Cytotoxicity IC50 Cl1-5; mean SD of three determinations
Give bare numbers, in nM.

compound: COc1ccc(/C=C/C(=O)NO)c(-c2ccc(-c3ccccc3)cc2)c1 [Compound 22d]
result-unit: nM
IC50: 7

// next entry
# lookup: IC50 of COc1ccc(/C=C/C(=O)NO)c(-c2cccc3c2oc2ccccc23)c1 [Compound 22g] 8.7

###

The listing below reports IC50 for compounds tested on HDAC1 (Homo sapiens (Human), UniProt Q13547).
Sequence (Q13547 whole entry, species assumed): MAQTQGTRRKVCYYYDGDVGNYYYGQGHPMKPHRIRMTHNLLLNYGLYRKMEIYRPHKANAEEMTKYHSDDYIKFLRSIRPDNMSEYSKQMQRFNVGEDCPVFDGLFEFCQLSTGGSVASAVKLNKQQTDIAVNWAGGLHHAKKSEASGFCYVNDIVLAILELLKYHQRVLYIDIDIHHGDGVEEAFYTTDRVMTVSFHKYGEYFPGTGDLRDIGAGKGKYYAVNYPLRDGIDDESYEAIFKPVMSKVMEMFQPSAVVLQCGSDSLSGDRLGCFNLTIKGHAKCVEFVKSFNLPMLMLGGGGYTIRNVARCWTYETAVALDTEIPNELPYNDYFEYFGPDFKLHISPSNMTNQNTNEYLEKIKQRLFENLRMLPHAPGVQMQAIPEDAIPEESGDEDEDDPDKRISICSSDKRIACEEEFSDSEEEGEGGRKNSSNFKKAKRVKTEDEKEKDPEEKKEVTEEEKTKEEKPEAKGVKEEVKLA
Give bare numbers, in nM.

compound: COc1ccc(/C=C/C(=O)NO)c(-c2ccc(-c3ccccc3)cc2)c1 [Compound 22d]
measurement-target: HDAC1 (Homo sapiens (Human), UniProt Q13547)
IC50 [nM]: 3

Suppose we examine the compound COc1ccc(/C=C/C(=O)NO)c(-c2ccc(Br)cc2)c1 [Compound 22b] ; what IC50 value has been reported? 4.5

###

Target: HDAC8 (Homo sapiens (Human), UniProt Q9BY41)
Sequence (Q9BY41 whole entry): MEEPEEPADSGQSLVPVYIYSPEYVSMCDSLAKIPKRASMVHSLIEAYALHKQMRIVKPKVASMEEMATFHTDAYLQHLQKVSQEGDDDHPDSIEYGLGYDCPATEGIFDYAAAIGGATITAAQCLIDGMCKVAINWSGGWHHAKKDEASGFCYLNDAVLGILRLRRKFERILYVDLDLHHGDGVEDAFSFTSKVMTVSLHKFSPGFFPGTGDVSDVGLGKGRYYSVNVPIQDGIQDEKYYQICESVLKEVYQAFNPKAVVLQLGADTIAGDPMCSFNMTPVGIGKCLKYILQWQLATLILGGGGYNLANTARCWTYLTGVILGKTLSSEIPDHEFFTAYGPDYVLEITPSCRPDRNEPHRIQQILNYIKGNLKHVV
Experiment: Inhibition of HDAC8
Format: biochemical
Conditions: inhibition of HDAC8; footnote: (Tables 11-13)
Can you tell me A (relative potency to PCI34051) for the items I'm about to list?
Numbers only.

Solved cases below.
compound: COc1ccc(/C=C/C(=O)NO)c(-c2ccc(F)cc2)c1
A (relative potency to PCI34051): 1.90
//
compound: COc1cc(Nc2cc(F)ccc2/C=C/C(=O)NO)cc(OC)c1OC [Compound 15a]
A (relative potency to PCI34051): 0.38
//
compound: COc1ccc(/C=C/C(=O)NO)c(-c2cncc3ccccc23)c1
A (relative potency to PCI34051): 0.28
//
compound: COc1cc(Nc2ncccc2/C=C/C(=O)NO)cc(OC)c1OC
A (relative potency to PCI34051): 0.68

Dear colleague, could you please provide A (relative potency to PCI34051) for the compounds listed below?
1. COc1ccc(/C=C/C(=O)NO)c(Nc2ccccc2OC)c1
2. COc1ccc(/C=C/C(=O)NO)c(Nc2ccc(OC)c(OC)c2)c1
3. COc1ccc(/C=C/C(=O)NO)c(Nc2ccccc2)c1
4. COc1ccc(/C=C/C(=O)NO)c(-c2cccc(Cl)c2)c1
5. COc1ccc(/C=C/C(=O)NO)c(-c2cc(OC)c(OC)c(OC)c2)c1

1: 0.17; 2: 0.44; 3: 0.40; 4: 1.17; 5: 0.29
